Each recorded value in this set is attributed to patent US20230278972A1.

# Test system: wheat (Triticum aestivum)
# experimentSummary: Test A postemergence, wheat
# Assay type: in vivo
# particulars: Postemergence, 500 g ai/ha; visual injury vs untreated controls after approx. 10 days; 0 to 100 scale (0 no effect, 100 complete control)
The entries below are paired with their reported Wheat plant response rating.

| compound | Wheat plant response rating |
| --- | --- |
| CCn1nccc(-c2cc(NS(=O)(=O)C(F)(F)F)c(C)cc2F)c1=O | 70 |
| Cc1cc(C)c(N(S(C)(=O)=O)S(=O)(=O)C(F)(F)F)cc1-c1cc(Cl)nn(C)c1=O | 50 |
| Cc1cc(C)c(N(S(=O)(=O)C(F)(F)F)S(=O)(=O)C(F)(F)F)cc1C1=NOC(C(C)(C)C)C1 (stereo not drawn) | 0 |
| Cc1cc(Cl)c(N(S(=O)(=O)C(F)(F)F)S(=O)(=O)C(F)(F)F)cc1C1=NOC(C)(C)C1 | 70 |
| C#CCN(CC#C)C(=O)c1cc(NS(=O)(=O)C(F)(F)F)c(C)cc1C | 70 |
| Cc1cc(C)c(N(S(=O)(=O)C(F)(F)F)S(=O)(=O)C(F)(F)F)cc1C1=NOC2(CCC(C)(C)CC2)C1 | 0 |
| Cc1cc(C)c(-c2ccnn(C)c2=O)cc1NS(=O)(=O)C(F)(F)F | 80 |
| Cc1cc(C)c(-n2ncccc2=O)cc1NS(=O)(=O)C(F)(F)F | 0 |
| Cc1cc(C)c(C(=O)N(C)CC2CC2)cc1NS(=O)(=O)C(F)(F)F | 40 |
| Cc1cc(C)c(C(=O)N2CCC3(CC2)OCCCO3)cc1NS(=O)(=O)C(F)(F)F | 60 |
| Cc1cc(F)c(C(=O)N2CCC(C#N)CC2)cc1N(S(=O)(=O)C(F)(F)F)S(=O)(=O)C(F)(F)F | 0 |
| Cc1cc(C)c(N(S(=O)(=O)C(F)(F)F)S(=O)(=O)C(F)(F)F)cc1-c1cc(C(C)C)nn(C)c1=O | 60 |
| Cc1cc(C)c(N(S(=O)(=O)C(F)(F)F)S(=O)(=O)C(F)(F)F)cc1C1=NOC2(CCCCCC2)C1 | 0 |
| Cc1cc(C)c(C2=NOC3(CCC3)C2)cc1NS(=O)(=O)C(F)(F)F | 70 |
| CC(=O)N(c1cc(-c2ccnn(C)c2=O)c(C)cc1C)S(=O)(=O)C(F)(F)F | 70 |
| Cc1cc(C)c(N(S(=O)(=O)C(F)(F)F)S(=O)(=O)C(F)(F)F)cc1C1=NOC2(CCCC2)C1 | 50 |
| Cc1cc(C)c(C(=O)N2CCC3(CCCC3)C2)cc1NS(=O)(=O)C(F)(F)F | 0 |
| Cc1cc(C)c(C(=O)N2CCC3(CCCC3)CC2)cc1NS(=O)(=O)C(F)(F)F | 0 |
| Cc1cc(-c2cc(NS(=O)(=O)C(F)(F)F)c(C)cc2C)c(=O)n(C)n1 | 60 |
| Cc1cc(C)c(C2=NOC(C(C)(C)C)C2)cc1NS(=O)(=O)C(F)(F)F (stereo not drawn) | 70 |
| CC(=O)N(c1cc(C2=NOC3(CCCC3)C2)c(C)cc1C)S(=O)(=O)C(F)(F)F | 60 |
| CCn1nccc(-c2cc(NS(=O)(=O)C(F)(F)F)c(C)cc2C)c1=O | 80 |
| CSC(=O)N(c1cc(C2=NOC3(CCCC3)C2)c(C)cc1C)S(=O)(=O)C(F)(F)F | 0 |
| Cc1cc(Cl)c(C2=NOC(C)(C)C2)cc1N(S(=O)(=O)C(F)(F)F)S(=O)(=O)C(F)(F)F | 0 |
| Cc1cc(Cl)c(C2=NOC3(CCCC3)C2)cc1NS(=O)(=O)C(F)(F)F | 0 |
| CCC1(CC)CC(c2cc(NS(=O)(=O)C(F)(F)F)c(C)cc2C)=NO1 | 0 |
| Cc1cc(F)c(C(=O)N2CC(C)OC(C)C2)cc1NS(=O)(=O)C(F)(F)F (stereo not drawn) | 70 |
